target: 5-hydroxytryptamine receptor 1A (Rattus norvegicus); assay: Effect on 5-hydroxytryptamine 1A receptor mediated inhibition of VIP-stimulated cAMP production at dose of 1 uM; format: functional; conditions: values are per cent of control
reported-endpoint: response, % of control (%)
Answers are plain numbers, in %.

Solved cases below.
structure=CCCN(CCC)[C@@H]1CCc2c(F)ccc(-c3ccco3)c2C1 reported_endpoint="response, % of control" unit_label=% value_observed=97
structure=CCCN(CCCCN1C(=O)CC2(CCCC2)CC1=O)[C@H]1CCc2c(F)ccc(OS(=O)(=O)C(F)(F)F)c2C1 reported_endpoint="response, % of control" unit_label=% value_observed=90
structure=CCCN(CCC)[C@@H]1CCc2c(F)ccc(OS(=O)(=O)C(F)(F)F)c2C1 reported_endpoint="response, % of control" unit_label=% value_observed=91
structure=O=C1CC2(CCCC2)CC(=O)N1CCCCN1CCN(c2ncccn2)CC1 reported_endpoint="response, % of control" unit_label=% value_observed=75
structure=CCCN(CCCCN1C(=O)CC2(CCCC2)CC1=O)[C@@H]1CCc2c(F)ccc(-c3ccco3)c2C1 reported_endpoint="response, % of control" unit_label=% value_observed=60
structure=CCCN(CCC)[C@H]1CCc2c(F)ccc(-c3ccco3)c2C1 reported_endpoint="response, % of control" unit_label=% value_observed=98

For every item in the list below, what is its measured response, % of control?
1. CCCN(CCC)[C@@H]1CCc2cccc(O)c2C1
2. CCCN(CCCCN1C(=O)CC2(CCCC2)CC1=O)[C@@H]1CCc2c(F)ccc(C(C)=O)c2C1
3. CCCN(CCCCN1C(=O)CC2(CCCC2)CC1=O)[C@H]1CCc2c(F)ccc(OC)c2C1

Result string:
1. 45
2. 59
3. 79

====

target: 5-hydroxytryptamine receptor 1A (Rattus norvegicus) (UniProt P19327); experiment: Effect on 5-hydroxytryptamine 1A receptor mediated inhibition of VIP-stimulated cAMP production at dose of 1 uM+ 10 uM 5-HT.; format: functional; details: values are per cent of control
reported-endpoint: response, % of control (%)
Give bare numbers, in %.

structure=CCCN(CCC)[C@@H]1CCc2c(F)ccc(OS(=O)(=O)C(F)(F)F)c2C1 reported_endpoint="response, % of control" value_observed=52

For every item in the list below, what is its measured response, % of control?
1. O=C1CC2(CCCC2)CC(=O)N1CCCCN1CCN(c2ncccn2)CC1
2. CCCN(CCC)[C@@H]1CCc2c(F)ccc(-c3cccs3)c2C1
3. CCCN(CCCCN1C(=O)CC2(CCCC2)CC1=O)[C@H]1CCc2c(F)ccc(-c3ccco3)c2C1

Result string:
64
58
68

====

Please provide measured response, % of control for the entries that follow.
Target: 5-hydroxytryptamine receptor 1A (Rattus norvegicus)
Sequence (whole entry): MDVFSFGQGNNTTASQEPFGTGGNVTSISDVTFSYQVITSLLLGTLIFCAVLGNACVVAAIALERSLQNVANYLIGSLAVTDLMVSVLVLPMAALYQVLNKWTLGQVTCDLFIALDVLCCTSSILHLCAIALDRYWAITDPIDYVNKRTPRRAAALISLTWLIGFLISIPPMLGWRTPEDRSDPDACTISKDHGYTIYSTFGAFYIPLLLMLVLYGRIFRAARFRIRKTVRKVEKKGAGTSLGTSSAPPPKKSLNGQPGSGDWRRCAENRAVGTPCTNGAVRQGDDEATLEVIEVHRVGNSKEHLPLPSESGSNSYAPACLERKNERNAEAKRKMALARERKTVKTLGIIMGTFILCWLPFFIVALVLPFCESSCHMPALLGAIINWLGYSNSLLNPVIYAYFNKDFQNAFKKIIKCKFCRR
Assay: Effect on 5-hydroxytryptamine 1A receptor mediated inhibition of VIP-stimulated cAMP production at dose of 0.1 uM + 1 uM 5-HT.
Format: functional
Conditions: values are per cent of control
Numbers only, in %.

Solved cases below.
structure=CCCN(CCC)[C@H]1CCc2c(F)ccc(-c3cccs3)c2C1 reported_endpoint="response, % of control" value_observed=57
structure=CCCN(CCCCN1C(=O)CC2(CCCC2)CC1=O)[C@@H]1CCc2c(F)ccc(OC)c2C1 reported_endpoint="response, % of control" value_observed=56
structure=CCCN(CCCCN1C(=O)CC2(CCCC2)CC1=O)[C@H]1CCc2c(F)ccc(OC)c2C1 reported_endpoint="response, % of control" value_observed=50
structure=CCCN(CCCCN1C(=O)CC2(CCCC2)CC1=O)[C@H]1CCc2c(F)ccc(-c3ccco3)c2C1 reported_endpoint="response, % of control" value_observed=62
structure=CCCN(CCC)[C@@H]1CCc2c(F)ccc(-c3cccs3)c2C1 reported_endpoint="response, % of control" value_observed=60

For every item in the list below, what is its measured response, % of control?
1. CCCN(CCC)[C@H]1CCc2cccc(O)c2C1
2. CCCN(CCCCN1C(=O)CC2(CCCC2)CC1=O)[C@H]1CCc2c(F)ccc(OS(=O)(=O)C(F)(F)F)c2C1
3. CCCN(CCCCN1C(=O)CC2(CCCC2)CC1=O)[C@H]1CCc2c(F)ccc(C(C)=O)c2C1
4. CCCN(CCC)[C@H]1CCc2c(F)cccc2C1
5. CCCN(CCC)[C@@H]1CCc2c(F)ccc(-c3ccco3)c2C1

Result string:
[43, 68, 70, 61, 60]

====

Target: 5-hydroxytryptamine receptor 1A (Rattus norvegicus, UniProt P19327)
Sequence (P19327 whole entry): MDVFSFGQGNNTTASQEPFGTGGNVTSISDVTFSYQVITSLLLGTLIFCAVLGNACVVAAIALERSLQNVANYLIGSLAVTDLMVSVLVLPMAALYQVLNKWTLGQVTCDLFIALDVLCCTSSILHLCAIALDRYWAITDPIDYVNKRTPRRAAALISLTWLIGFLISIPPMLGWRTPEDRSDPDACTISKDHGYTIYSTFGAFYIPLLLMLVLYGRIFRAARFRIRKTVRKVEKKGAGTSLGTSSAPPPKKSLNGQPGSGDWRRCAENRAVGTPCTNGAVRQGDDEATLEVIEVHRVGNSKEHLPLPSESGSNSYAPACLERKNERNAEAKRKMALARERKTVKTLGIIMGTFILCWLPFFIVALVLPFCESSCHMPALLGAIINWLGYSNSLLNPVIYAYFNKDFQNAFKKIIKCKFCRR
Assign labels as follows, please: 1 for Ki below 40 nM; -1 for Ki equal to or exceeding 40 nM.

Solved entries:
structure=CCCN(CCCCN1C(=O)CC2(CCCC2)CC1=O)[C@H]1CCc2c(F)ccc(OS(=O)(=O)C(F)(F)F)c2C1 classification=-1
structure=CCCN(CCC)[C@@H]1CCc2cccc(S(=O)(=O)C(F)(F)F)c2C1 classification=1
structure=CCCN(CCCCN1C(=O)CC2(CCCC2)CC1=O)[C@H]1CCc2c(F)ccc(O)c2C1 classification=1
structure=CCCN(CCC)[C@H]1CCc2c(F)ccc(O)c2C1 classification=1

Query string: Is Ki of "CCCN(CCC)[C@H]1CCc2cccc(-c3ccco3)c2C1" strictly below 40 nM?
Result string: 1

Query string: Is Ki of "CCCN(CCC)[C@H]1CCc2cccc(S(=O)(=O)C(F)(F)F)c2C1" strictly below 40 nM?
Result string: 1

====

Biological target: UniProtKB P19327
Sequence (whole entry): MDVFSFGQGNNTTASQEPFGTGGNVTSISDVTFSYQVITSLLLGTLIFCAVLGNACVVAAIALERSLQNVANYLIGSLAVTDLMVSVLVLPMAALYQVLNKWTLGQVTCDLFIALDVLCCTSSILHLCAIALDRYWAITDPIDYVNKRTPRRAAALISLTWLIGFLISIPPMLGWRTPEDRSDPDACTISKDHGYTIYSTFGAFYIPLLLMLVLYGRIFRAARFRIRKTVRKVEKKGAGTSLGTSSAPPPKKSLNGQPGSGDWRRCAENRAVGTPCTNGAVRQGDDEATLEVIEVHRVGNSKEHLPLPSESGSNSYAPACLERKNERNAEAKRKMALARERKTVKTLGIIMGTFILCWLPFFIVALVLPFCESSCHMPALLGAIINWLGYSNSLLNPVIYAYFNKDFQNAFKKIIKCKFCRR
Test: Effect against 5-hydroxytryptamine 1A receptor mediated inhibition of VIP-stimulated cAMP production at 0.1 uM dose
Format: functional
Details: values are per cent of control
Assign labels as follows, please: yes (1) for response, % of control below 90%; no (0) for response, % of control equal to or exceeding 90%.

Solved entries:
structure=CCCN(CCC)[C@H]1CCc2c(F)cccc2C1 classification="yes (1)"
structure=CCCN(CCC)[C@@H]1CCc2c(F)ccc(OS(=O)(=O)C(F)(F)F)c2C1 classification="no (0)"
structure=CCCN(CCC)[C@@H]1CCc2c(F)ccc(-c3cccs3)c2C1 classification="no (0)"
structure=O=C1CC2(CCCC2)CC(=O)N1CCCCN1CCN(c2ncccn2)CC1 classification="yes (1)"
structure=CCCN(CCC)[C@@H]1CCc2c(F)ccc(C(C)=O)c2C1 classification="no (0)"

Query string: Is response, % of control of "CCCN(CCC)[C@@H]1CCc2cccc(O)c2C1" strictly below 90%?
Result string: yes (1)

Query string: Is response, % of control of "CCCN(CCC)[C@@H]1CCc2c(F)ccc(O)c2C1" strictly below 90%?
Result string: yes (1)

Query string: Is response, % of control of "CCCN(CCC)[C@H]1CCc2c(F)ccc(-c3cccs3)c2C1" strictly below 90%?
Result string: no (0)

Query string: Is response, % of control of "CCCN(CCC)[C@H]1CCc2cccc(O)c2C1" strictly below 90%?
Result string: yes (1)

Query string: Is response, % of control of "CCCN(CCC)[C@H]1CCc2c(F)ccc(O)c2C1" strictly below 90%?
Result string: no (0)

Query string: Is response, % of control of "CCCN(CCC)[C@H]1CCc2c(F)ccc(-c3ccco3)c2C1" strictly below 90%?
Result string: no (0)
